Consider the following molecules and their measured Inhibition readings.
Tested on: Plasmodium falciparum
Test: GSK_TCMDC: Inhibition of Plasmodium falciparum Dd2 in whole red blood cells, using parasite LDH activity as an index of growth. Test compounds present at 2uM
Type: functional
Report only the number, with the unit % understood.

These recorded examples may help you get a feel for the data.
O=C(O)C(F)(F)F.O=S(=O)(NCCN1CCCC1)c1cccc(-c2ccc(CNC3Cc4ccccc4C3)cc2)c1 ... 74
COc1ccc(C(C(=O)NC2CCN(C[C@H](O)c3ccnc4ccc(OC)cc34)CC2)N2CCN(Cc3ccccc3)CC2)cc1 (some centres undefined) ... 72
Cn1c(NC2CCN(CC3CCN(C(=O)/C=C/c4ccc(Cl)c(Cl)c4)CC3)CC2)nc2ccccc21 ... 100

Quick one: Inhibition for Nc1ccc2[nH]cc(C3CCN(CC4CCC(NC(=O)/C=C/c5ccc(Cl)c(Cl)c5)CC4)CC3)c2n1 (centres undefined) ? 93

###

Test system: HepG2
Experiment: GSK_TCMDC: Percent inhibition of human HepG2 cell line. Test compounds present at 10uM.
Assay type: functional
Entries whose Inhibition is below 30% take Condition met; entries at or above 30% take Condition not met.

Cc1nc(-c2ccc(-c3ccc(C(=O)Nc4ccc(-n5ccnc5)c(N5CCN(C)CC5)c4)cc3)c(C)c2)no1 ... Condition not met
O=C(O)C(F)(F)F.O=S(=O)(NC1CCN(c2ccnc3ccccc23)C1)c1ccc(OC(F)(F)F)cc1 (stereo not drawn) ... Condition not met
CN(C)CCOc1ccc(-n2c(-c3nonc3N)nc3cncc(-c4ccc(F)cc4)c32)cc1 ... Condition met
Clc1ccc(-c2[nH]c3ccccc3c2CN2CCC(N3CCCCC3)CC2)cc1 ... Condition met
Cc1noc(C)c1-c1ccc(C(=C2CCCCCCC2)c2ccc(O)cc2)cc1 ... Condition met
CC(C)(C)c1cc(C(=O)N2CCN(c3cnccn3)CC2)n(Cc2ccccc2)n1 ... Condition met
COc1ccc2ncc(F)c(CCN3CC(O)C(CNCc4ccccc4)C3)c2n1.Cl (stereo not drawn) ... Condition met
O=C(c1ccc(F)c(F)c1)N1CCOC(CCN2CCC(c3ccccc3)CC2)(c2ccc(Cl)c(Cl)c2)C1 (stereo not drawn) ... Condition not met
Cc1ccc(F)c(OCC2CCN(c3ncc(C(=O)NC4CC4)cc3Cl)CC2)c1 ... Condition met
CCN(c1cc(C)nc(Nc2ccc(Cl)cc2)n1)[C@H]1CCN(Cc2ccccc2)C1 ... Condition not met

# strict comparison: is reported Inhibition < 30%? input = COc1ccc(NC(=O)/C=C/c2ccccc2Cl)cc1OCCN1CCC(Cc2cc3ccccc3[nH]2)CC1.Cl Condition not met

Another compound to look at: Cc1cccc2nc(-c3cccc(-c4ccc(NC(=O)C(C)CN(C)C)cc4)c3)[nH]c12 (stereo not drawn) Condition met

###

Readings of Inhibition for the listed molecules
Tested on: Plasmodium falciparum
Test: GSK_TCMDC: Inhibition of Plasmodium falciparum 3D7 in whole red blood cells, using parasite LDH activity as an index of growth. Test compounds present at 2uM
Format: functional
Remember to quote the unit after the number.

Consider the following illustrative entries.
O=C(Nc1ccc(CC(=O)N2CCc3cc(Cl)c(N4CCN(C/C=C/c5ccccc5)CC4)cc32)cc1)Nc1cccc([N+](=O)[O-])c1 ... 95%
CN1CCN(c2ccnc3ccc(NC(=O)Cc4ccc(-c5ccncc5)c5ccccc45)cc23)CC1 ... 100%
NCCCNc1ccnc2cc(Cl)ccc12 ... 100%
O=C(NC(CCCN1CCC(c2ccccc2)CC1)c1ccc(Cl)c(Cl)c1)c1cc(C(F)(F)F)cc(C(F)(F)F)c1 (stereo not given) ... 92%
O=C(O)C[C@H](NC(=O)[C@@H]1CCCN1C(=O)c1cccc(-c2ccc(Cl)c(Cl)c2)c1)C(=O)O ... 84%

For the molecule shown here, CC(C)n1cc2c(ccc3nc(N)nc(N)c32)n1 , give the reported Inhibition. 92%

Also check Cn1c(Sc2ncnc3sccc23)nc2ccccc21 100%

Same again, this time with Cc1ccc(Nc2nc(C)cc(Nc3cccc(NS(C)(=O)=O)c3)n2)cc1 96%

Same thing, different molecule: O=C(Nc1ccc(CCNCc2ccccc2)cc1)Nc1ccc(OC(F)(F)F)cc1.O=C(O)C(F)(F)F 100%

Also Cc1noc(C)c1-c1ccc2c(Nc3ccccc3C(C)(C)C)c(C(=O)NCc3ccc(OC(C)C)cc3)cnc2c1.Cl , if possible. 100%

Again, but for O=C(Nc1ccc(-c2ccccc2)cc1)Nc1ccc2c(c1)CCNCC2.O=C(O)C(F)(F)F 97%
